folding stability dG by entry:
B1: r4_43_TrROS_Hall (parent)
chain: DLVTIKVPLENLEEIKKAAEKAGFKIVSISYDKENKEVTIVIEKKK

# Variants of: B1
# assay: folding stability dG (cDNA display proteolysis); higher = more stable
# condition label: PBS, room temperature
Write the number in kcal/mol without appending the unit.

{"biosequence": "DLVTIKVPLENLEEIKKAAEKAGFKISSISYDKENKEVTIVIEKKK [V27S]", "unit symbol": "kcal/mol", "folding stability dG": 3.35}
{"biosequence": "DLVTIKVPLENLEEIKYAAEKAGFKIVSISYDKENKEVTIVIEKKK [K17Y]", "unit symbol": "kcal/mol", "folding stability dG": 4.27}
{"biosequence": "DLVTIKVPLENLEEIKKAAEKAGFKIVSISYDKENKEVTIVIEKWK [K45W]", "unit symbol": "kcal/mol", "folding stability dG": 4.49}
{"biosequence": "DLVTIKVPLENLEEIKKAAEKAGFKIVSISYDKENKERTIVIEKKK [V38R]", "unit symbol": "kcal/mol", "folding stability dG": 1.31}

Kindly review the next variant as well.
// sample DLVTIKVPLENLCEIKKAAEKAGFKIVSISYDKENKEVTIVIEKKK [E13C] , its folding stability dG was 3.74

Measured values drawn from the MegaScale stability set (Tsuboyama et al. 2023) for this set.
